# credit: the Kinase Knowledgebase extract (Sharma et al. 2016)

Assignment: determine reported IC50 for the given molecules.
# Measured target: ROCK2 (human) (UniProt O75116)
# Sequence (O75116 whole entry, looked up): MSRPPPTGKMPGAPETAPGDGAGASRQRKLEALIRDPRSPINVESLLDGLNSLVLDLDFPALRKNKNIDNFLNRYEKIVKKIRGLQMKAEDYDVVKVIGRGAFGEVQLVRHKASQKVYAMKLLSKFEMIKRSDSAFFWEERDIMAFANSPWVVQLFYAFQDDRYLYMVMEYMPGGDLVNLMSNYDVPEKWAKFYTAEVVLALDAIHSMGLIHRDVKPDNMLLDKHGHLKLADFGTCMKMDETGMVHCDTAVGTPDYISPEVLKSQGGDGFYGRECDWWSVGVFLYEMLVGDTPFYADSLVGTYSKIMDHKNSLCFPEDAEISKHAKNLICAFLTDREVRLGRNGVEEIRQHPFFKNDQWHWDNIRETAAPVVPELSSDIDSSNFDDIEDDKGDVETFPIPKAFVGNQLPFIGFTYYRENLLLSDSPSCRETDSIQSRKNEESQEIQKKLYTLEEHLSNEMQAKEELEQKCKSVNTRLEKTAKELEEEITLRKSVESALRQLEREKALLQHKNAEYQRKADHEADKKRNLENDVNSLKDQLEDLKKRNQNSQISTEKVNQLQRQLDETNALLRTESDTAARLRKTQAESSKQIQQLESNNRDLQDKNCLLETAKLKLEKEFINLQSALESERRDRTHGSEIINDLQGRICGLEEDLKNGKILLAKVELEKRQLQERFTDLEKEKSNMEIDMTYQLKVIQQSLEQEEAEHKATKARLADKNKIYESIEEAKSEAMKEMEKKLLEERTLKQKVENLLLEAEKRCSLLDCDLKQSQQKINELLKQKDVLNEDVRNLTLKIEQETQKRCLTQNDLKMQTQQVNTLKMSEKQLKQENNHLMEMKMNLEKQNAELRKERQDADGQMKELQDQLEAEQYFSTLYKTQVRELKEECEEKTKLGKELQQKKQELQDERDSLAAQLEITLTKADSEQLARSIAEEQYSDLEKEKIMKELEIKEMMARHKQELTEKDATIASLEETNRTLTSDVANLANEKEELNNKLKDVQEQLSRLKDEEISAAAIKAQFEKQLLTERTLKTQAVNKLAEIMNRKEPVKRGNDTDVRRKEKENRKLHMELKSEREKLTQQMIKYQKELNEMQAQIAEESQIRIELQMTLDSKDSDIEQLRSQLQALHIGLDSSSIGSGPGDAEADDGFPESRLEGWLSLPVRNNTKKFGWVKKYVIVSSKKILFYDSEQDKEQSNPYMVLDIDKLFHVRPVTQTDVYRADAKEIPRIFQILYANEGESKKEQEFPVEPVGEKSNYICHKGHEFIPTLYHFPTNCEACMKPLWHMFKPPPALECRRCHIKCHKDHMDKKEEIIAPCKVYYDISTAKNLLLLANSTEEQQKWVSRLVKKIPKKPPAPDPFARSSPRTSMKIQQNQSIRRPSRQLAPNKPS
# Test details: Assessment of ROCK2 Kinase Activity using IMAP Assay
Answers are plain numbers, in nM.

For each of the molecules below, note its IC50.
1. CN1CCc2nc(NC(=O)c3cccc([C@H]4CCCN4C(=O)c4cc(-c5ccncc5)[nH]n4)c3)sc2C1
2. N#Cc1cccc(NC(=O)N2CCC[C@@H]2c2cccc(C(=O)Nc3nc4c(s3)C[C@@H](N3CCOCC3)CC4)c2)c1
3. CN1CCc2nc(NC(=O)c3cccc([C@H]4CCCN4C(=O)c4csc(-c5ccncc5)n4)c3)sc2C1
4. CN1CCc2nc(NC(=O)c3cccc([C@H]4CCCN4C(=O)c4cn5cc(C(N)=O)ccc5n4)c3)sc2C1
5. N#Cc1ccc(NC(=O)COc2cccc(C(=O)Nc3nc4c(s3)C[C@@H](NCCC(F)(F)F)CC4)c2)cc1
6. CN1CCc2nc(NC(=O)c3cccc([C@H]4CCCN4C(=O)c4csc(-c5cccnc5)n4)c3)sc2C1
7. N#Cc1cccc2c1CCN2C(=O)N1CCC[C@@H]1c1cccc(C(=O)Nc2nc3c(s2)C[C@@H](N2CCOCC2)CC3)c1
8. CN1CCc2nc(NC(=O)c3cccc([C@H]4CCCN4C(=O)c4ccc5cc(O)ccc5c4)c3)sc2C1

stdout:
[4.1, 0.6, 16, 7.4, 32, 13, 2.9, 4]

State recorded IC50 for all listed molecules.
1. N#CCCN[C@H]1CCc2nc(NC(=O)c3cccc(OCC(=O)Nc4ccc(C#N)cc4)c3)sc2C1
2. CN1CCc2nc(NC(=O)c3cccc([C@H]4CCCN4C(=O)c4nnn(-c5nonc5N)c4-c4ccccc4)c3)sc2C1

stdout:
27
44

Provide IC50 values for the following items, in order.
1. COc1ccc(C(=O)N2CCC[C@@H]2c2cccc(C(=O)Nc3nc4c(s3)C[C@@H](N3CCOCC3)CC4)c2)cc1Cl
2. CN1CCc2nc(NC(=O)c3cccc([C@H]4CCCN4C(=O)c4ccc(-c5cnco5)cc4)c3)sc2C1

stdout:
[7.9, 11.2]
